From: PubChem BioAssay (NCI)

system: RPMI-8226 leukemia; experiment: NCI tumour cell line growth inhibition, 48 h
Listing of entries alongside the reported TGI.
testReadout: TGI

>>> result("C[Si](C)(C)c1ccc(-c2sc(-c3ccc([Si](C)(C)C)s3)c3c2C[Si]2(C3)Cc3c(-c4ccc([Si](C)(C)C)s4)sc(-c4ccc([Si](C)(C)C)s4)c3C2)s1")
"> 100 µM"
>>> result("C=C(CO[Si](C)(C)C(C)(C)C)C(C)=O")
"> 77.8 µM"
>>> result("COc1ccc(OC)c2c1C(=O)C1CC1(Br)C2=O (stereo not drawn)")
"> 100 µM"
>>> result("COC1OC2COC1(OC)C1OC(C)(C)OC21 (stereo not drawn)")
"> 100 µM"
>>> result("COc1cc2c(cc1OC)C(Cl)C(c1ccc(Cl)c(Cl)c1)=C2Cl (stereo not drawn)")
"12.8 µM"
>>> result("CCCOC(=O)N1CCN(/[N+]([O-])=N/Oc2ccc([N+](=O)[O-])cc2[N+](=O)[O-])CC1")
"2.41 µM"
>>> result("C[C@@H]1CC[C@H]2C(C(O)CCCCC(O)C3=C(C(F)(F)F)O[C@@H]4O[C@@]5(C)CC[C@H]6[C@H](C)CC[C@@H]3[C@@]46OO5)=C(C(F)(F)F)O[C@@H]3O[C@@]4(C)CC[C@@H]1[C@]32OO4 (stereo partly drawn)")
"> 100 µM"
>>> result("COc1ccc(-c2c(C#N)c(S)n(NS(=O)(=O)c3ccc(C)cc3)c(=O)c2C#N)cc1")
"15.4 µM"
>>> result("COC(=O)C1=CC2C(=O)OC1CC2C#N (stereo not drawn)")
"> 100 µM"
>>> result("O=C(O)c1ccn(-c2cccc(-n3ccc(C(=O)O)n3)n2)n1")
"> 100 µM"
>>> result("Cn1cc(C2=C(c3cccc(OCC(O)CO)c3)C(=O)NC2=O)c2ccccc21 (stereo not drawn)")
"> 25 µM"
>>> result("COc1ccccc1NC(=O)CC(=O)N1N=C(C)C(N=Nc2ccc(C(=O)O)cc2)C1=O (stereo not drawn)")
"> 100 µM"
>>> result("CN(C)c1ccc2c(c1)OC(N)=C(C#N)C2c1ccc2c(c1)CCO2 (stereo not drawn)")
"28.3 µM"
>>> result("COc1ccc(/C=N/N=C(\\N)NO)c(OC)c1")
"> 100 µM"
>>> result("O=C(Nc1ccc(Cl)c(Cl)c1)O/N=C\\c1c(Cl)ccc([N+](=O)[O-])c1Cl")
"4.3 µM"
>>> result("CC1(C)CC(=O)c2c(nc3ccc4ccccc4c3c2-c2ccc(NC(=O)CCCCCCCCC(=O)Nc3ccc(-c4c5c(nc6ccc7ccccc7c46)CC(C)(C)CC5=O)cc3)cc2)C1")
"> 100 µM"
>>> result("O=C(/C=C/c1ccc([N+](=O)[O-])cc1)c1ccc2c3c(cccc13)CC2")
"4.84 µM"
>>> result("Cc1ccccc1NC(=O)C(=O)CC(=O)c1c(C)n([O-])c2ccccc2[n+]1=O")
"> 100 µM"
